# test-protocol: in vitro
# conditions-used: African green monkey, Cytotox CC50
// reported CC50 per item
# value in µM; strip the unit string

{"compound": "C[C@]12CC3CC(C(=O)N4CCC(N)CC4)(C1)C[C@@](c1ccccc1)(C3)C2 [Example B7]", "scale-unit": "µM", "reported-result": 31}
{"compound": "CC12CC3CC(C(=O)NC45CCN(CC4)CC5)(C1)CC(c1ccccc1)(C3)C2 (racemic) [Example A60]", "scale-unit": "µM", "reported-result": 23.1}
{"compound": "C[C@@]12CC3CC(C(=O)N4CCC(N)CC4)(C1)C[C@](c1ccccc1)(C3)C2 [Example C7]", "scale-unit": "µM", "reported-result": 13}

Field: next compound
Fill in the blank: the reported CC50 of CCC12CC3CC(C(=O)N4CC[C@H](N)[C@@H](F)C4)(C1)CC(c1ccccc1)(C3)C2 (mixture of isomers) [Example A24] is ____.
11.2

* * *

Record set of pIC50 for target or system Cyp-p450 1A2 (Homo sapiens, UniProt P05177).
pIC50: −log10 of the molar value.

{"compound": "C[C@]12CC3CC(C(=O)N[C@H]4CC[C@@H](N)CC4)(C1)C[C@@](c1ccccc1)(C3)C2.Cl [Example B2]", "experimental-system": "Cyp-p450 1A2 (Homo sapiens, UniProt P05177)", "pIC50": "< 4.00"}

# context switch: different compound, same pIC50
Endpoint output: pIC50 of CC12CC3CC(C(=O)N[C@H]4CC[C@@H](N)CC4)(C1)CC(c1ccccc1)(C3)C2.Cl (mixture of isomers) [Example A2] . Value?
< 4.00

* * *

Let's look at some compounds and their measured Liver Microsome Stability % Remaining after 60 Minutes, Monkey.
# conditions-used: microsomes, 1 h
Dear colleague, please return just the value in %, with no unit written.

Here's what some known entries look like.
{"compound": "CC12CC3CC(CN4CCC(N)CC4)(C1)CC(c1ccccc1)(C3)C2 (stereo not drawn) [Example A69]", "scale-unit": "%", "reported-result": 68}
{"compound": "C[C@H]1C[C@@H](NC(=O)C23CC4C[C@@](C)(C2)C[C@](c2ccccc2)(C4)C3)CCN1 [Example B4]", "scale-unit": "%", "reported-result": 54}

Let's switch to this compound now.
Fill blank: measured Liver Microsome Stability % Remaining after 60 Minutes, Monkey of the compound CC1(C)CN(C(=O)C23CC4C[C@@](C)(C2)C[C@](c2ccccc2)(C4)C3)CCC1N (stereo partly drawn) [Example B8] is ____.
30

* * *

# conditions-used: microsomes, 1 h
value-type: Liver Microsome Stability % Remaining after 60 Minutes, Mouse (%)
Reply numerically in %, unit not repeated.

See these solved cases before continuing.
{"compound": "CC1(C)CN(C(=O)C23CC4C[C@@](C)(C2)C[C@](c2ccccc2)(C4)C3)CC[C@@H]1N", "reported-result": 51}
{"compound": "CC12CC3CC(C(=O)N4CCC(N)C(C)(C)C4)(C1)CC(c1ccccc1)(C3)C2 (racemic)", "reported-result": 42}

Given the entry CC12CC3CC(C(=O)N4CCC5(CC4)CNC5)(C1)CC(c1ccccc1)(C3)C2 (racemic) , report its measured Liver Microsome Stability % Remaining after 60 Minutes, Mouse.
76

Recorded Liver Microsome Stability % Remaining after 60 Minutes, Mouse of `C[C@H]1C[C@@H](NC(=O)C23CC4C[C@@](C)(C2)C[C@](c2ccccc2)(C4)C3)CCN1` , please.
92

Data request, read-out Liver Microsome Stability % Remaining after 60 Minutes, Mouse, for `C[C@]12CC3CC(C(=O)N[C@H]4CC[C@H](CN)CC4)(C1)C[C@@](c1ccccc1)(C3)C2`
27

What does the record list as Liver Microsome Stability % Remaining after 60 Minutes, Mouse for `C[C@]12CC3CC(C(=O)N[C@H]4CC[C@@H](N)CC4)(C1)C[C@@](c1ccccc1)(C3)C2.Cl` ?
71
